Reported Kd values follow for various binders
- subject of test: T1, DCAF12 (Δ1–78) (human, UniProt Q5T6F0 79-453)
- T1 construct: DDB1- and CUL4-associated factor 12 (DCAF12), human, residues 79-453 (Δ1-78); also called DCAF12:79-453aa; N-terminally truncated DCAF12; source: Sf9 (baculovirus, pFBOH-MHL), purified (TALON beads, Superdex S200 26/60)
- assay text: fluorescence polarisation; direct binding; protein titrated from 4 µM in two-fold steps against 20 nM FITC peptide; 20 mM Tris pH 7.5, 150 mM NaCl, 5% glycerol, 0.5 mM TCEP, 0.01% Triton; 45 min at room temperature
- condition description: both partners purified
Where no end group is shown, it is not given here. The star is where a group is joined. FITC = O=C1OC2(c3ccc(O)cc3Oc3cc(O)ccc32)c2ccc(NC(=S)*)cc21
Reply with just the number (in nM).

>  <binder>
{FITC}-IRKPGESEE (nine C-terminal residues of T-complex protein 1 subunit epsilon (CCT5); also called CCT5 peptide) [FITC-labeled CCT5 C-terminal degron peptide]

>  <measurement type>
Kd

>  <unit label>
nM

>  <quantitative result>
370

$$$$

Query :: What value of measured Kd is listed for {FITC}-LHEWVLREGEE (11 C-terminal residues of melanoma-associated antigen 3 (MAGEA3); also called MAGEA3 peptide) [FITC-labeled MAGEA3 C-terminal degron peptide] ?
Result :: 520
